I'd be grateful if you could share measured pIC50 for these entries.
target: Human immunodeficiency virus type 1 integrase (Human immunodeficiency virus 1, UniProt Q7ZJM1); assay: Inhibition of HIV1 integrase 3'-end processing activity
Sequence (Q7ZJM1 whole entry): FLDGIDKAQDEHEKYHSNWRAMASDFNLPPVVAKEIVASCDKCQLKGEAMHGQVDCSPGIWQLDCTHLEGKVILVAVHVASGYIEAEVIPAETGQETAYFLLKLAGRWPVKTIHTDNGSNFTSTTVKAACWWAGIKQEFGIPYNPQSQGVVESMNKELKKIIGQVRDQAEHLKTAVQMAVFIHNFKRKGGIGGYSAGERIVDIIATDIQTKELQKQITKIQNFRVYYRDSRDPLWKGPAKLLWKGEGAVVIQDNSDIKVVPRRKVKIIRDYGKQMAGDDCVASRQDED
Answers are plain numbers, as −log10 of the molar value.

{"columns": ["COMPOUND", "pIC50"],
 "data": [
  ["Cc1cc(Cl)cc2c1S(=O)(=O)N=C(C(=O)c1ccc3ccccc3c1)S2", 4.66]
]}

Below are 2 compounds. Give each one its pIC50.
1. O=C(C1=NS(=O)(=O)c2ccc(Cl)cc2S1)c1ccc(Cl)c(Cl)c1
2. Cc1cc(Cl)cc2c1S(=O)(=O)NC(C(=O)c1ccc(Cl)cc1)S2 (configuration not stated)

Ans.
1. 4.21
2. 4.64

###

molecular target: Human immunodeficiency virus type 1 integrase (Human immunodeficiency virus 1, UniProt Q7ZJM1); experiment: Inhibition of HIV1 integrase strand transfer activity
pIC50: −log10 of the molar value.
# label = Satisfied if pIC50 >= 5 else Not satisfied

Completed entries (count: 5):
{"columns": ["COMPOUND", "CLASSIFICATION"],
 "data": [
  ["O=C(C1=NS(=O)(=O)c2ccc(Cl)cc2S1)c1ccc(Cl)c(Cl)c1", "Not satisfied"],
  ["Cc1cc2c(cc1Cl)SC(C(=O)c1ccc(Cl)c(Cl)c1)=NS2(=O)=O", "Satisfied"],
  ["Cc1cc2c(cc1Cl)SC(C(=O)c1ccc(Cl)cc1)=NS2(=O)=O", "Not satisfied"],
  ["COc1ccc(C(=O)C2NS(=O)(=O)c3cc(C)c(Cl)cc3S2)cc1 (configuration not stated)", "Not satisfied"],
  ["Cc1cc(Cl)cc2c1S(=O)(=O)N=C(C(=O)c1ccc3ccccc3c1)S2", "Satisfied"]
]}

Qu. Could you verify whether the entry Cc1cc2c(cc1Cl)SC(C(=O)c1ccccc1)NS2(=O)=O (configuration not stated) shows pIC50 of no less than 5?
Ans. Satisfied

Qu. Lookup Cc1cc2c(cc1Cl)SC(C(=O)c1cccc([N+](=O)[O-])c1)NS2(=O)=O (configuration not stated)
Ans. Not satisfied

Qu. Lookup O=C(C1=NS(=O)(=O)c2ccc(Cl)cc2S1)c1ccc(Cl)cc1
Ans. Not satisfied

Qu. Lookup Cc1cc(Cl)cc2c1S(=O)(=O)NC(C(=O)c1ccc(Cl)cc1)S2 (configuration not stated)
Ans. Not satisfied

Qu. Lookup O=C(c1ccc2ccccc2c1)C1NS(=O)(=O)c2ccc(Cl)cc2S1 (configuration not stated)
Ans. Satisfied

###

target: Human immunodeficiency virus type 1 integrase (Human immunodeficiency virus 1, UniProt Q7ZJM1, Y99S); experiment: Inhibition of HIV1 integrase Y99S mutant strand transfer activity
Sequence (Q7ZJM1 entry or part of it Y99S): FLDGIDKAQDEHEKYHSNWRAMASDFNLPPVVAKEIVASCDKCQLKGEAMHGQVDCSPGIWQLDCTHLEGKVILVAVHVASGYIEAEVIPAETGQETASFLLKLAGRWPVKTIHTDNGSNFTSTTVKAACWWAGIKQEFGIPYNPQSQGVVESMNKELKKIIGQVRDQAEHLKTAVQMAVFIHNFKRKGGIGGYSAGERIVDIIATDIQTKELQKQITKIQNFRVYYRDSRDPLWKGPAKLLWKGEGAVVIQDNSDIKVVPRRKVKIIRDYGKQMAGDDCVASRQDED
PROPERTY: IC50 (µM)
Give bare numbers, in µM.

Please review the following examples before continuing.
{"columns": ["COMPOUND", "QUANTITY_UNIT", "TEST_VALUE"],
 "data": [
  ["Cc1cc2c(cc1Cl)SC(C(=O)c1ccccc1)NS2(=O)=O (configuration not stated)", "µM", 18],
  ["O=C(c1ccc(Cl)c(Cl)c1)C1NS(=O)(=O)c2ccc(Cl)cc2S1 (configuration not stated)", "µM", 20],
  ["Cc1cc2c(cc1Cl)SC(C(=O)c1ccccc1)=NS2(=O)=O", "µM", 18]
]}

Below are 4 compounds. Give each one its IC50.
1. O=C(C1=NS(=O)(=O)c2ccc(Cl)cc2S1)c1ccc2ccccc2c1
2. O=C(c1ccc2ccccc2c1)C1NS(=O)(=O)c2ccc(Cl)cc2S1 (configuration not stated)
3. O=C(C1=NS(=O)(=O)c2ccc(Cl)cc2S1)c1ccc(Cl)cc1
4. Cc1cc(Cl)cc2c1S(=O)(=O)N=C(C(=O)c1ccc3ccccc3c1)S2

Ans.
1: 15; 2: 15; 3: 20; 4: 23

###

target: Human immunodeficiency virus type 1 integrase (Human immunodeficiency virus 1, UniProt Q7ZJM1); assay: Inhibition of HIV1 integrase strand transfer activity
PROPERTY: IC50 (µM)
One number for each entry, in µM.

{"columns": ["COMPOUND", "IC50 [µM]"],
 "data": [
  ["Cc1cc2c(cc1Cl)SC(C(=O)c1ccc3ccccc3c1)=NS2(=O)=O", 3],
  ["Cc1cc2c(cc1Cl)SC(C(=O)c1cccc([N+](=O)[O-])c1)=NS2(=O)=O", 50]
]}

Below are 3 compounds. Give each one its IC50.
1. Cc1cc2c(cc1Cl)SC(C(=O)c1ccc(Br)cc1)=NS2(=O)=O
2. O=C(c1ccc(Cl)c(Cl)c1)C1NS(=O)(=O)c2ccccc2S1 (stereo not given)
3. Cc1cc(Cl)cc2c1S(=O)(=O)N=C(C(=O)c1ccc(Cl)cc1)S2

Ans.
1: 30; 2: 15; 3: 25

###

I'd be grateful if you could share measured IC50 for these entries.
molecular target: Human immunodeficiency virus type 1 integrase (Human immunodeficiency virus 1, UniProt Q7ZJM1, H114A); assay: Inhibition of HIV1 integrase H114A mutant 3'-end processing activity
Sequence (Q7ZJM1 entry or part of it H114A): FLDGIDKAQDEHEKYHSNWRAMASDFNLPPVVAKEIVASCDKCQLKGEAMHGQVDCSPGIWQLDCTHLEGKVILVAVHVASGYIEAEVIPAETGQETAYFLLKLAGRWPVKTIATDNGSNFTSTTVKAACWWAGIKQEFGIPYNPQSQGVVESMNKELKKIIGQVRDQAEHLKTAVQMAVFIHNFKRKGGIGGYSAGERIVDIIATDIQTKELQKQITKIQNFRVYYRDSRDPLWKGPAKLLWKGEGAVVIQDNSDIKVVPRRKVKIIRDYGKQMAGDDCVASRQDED
Dear colleague, please send the value followed by its unit.

{"columns": ["MOLECULE", "IC50"],
 "data": [
  ["O=C(C1=NS(=O)(=O)c2ccc(Cl)cc2S1)c1ccc(Cl)cc1", "20 µM"],
  ["O=C(c1ccc(Cl)cc1)C1NS(=O)(=O)c2ccc(Cl)cc2S1 (configuration not stated)", "20 µM"],
  ["Cc1cc2c(cc1Cl)SC(C(=O)c1ccc(Cl)cc1)=NS2(=O)=O", "18 µM"],
  ["Cc1cc(Cl)cc2c1S(=O)(=O)N=C(C(=O)c1ccc3ccccc3c1)S2", "33 µM"],
  ["O=C(c1ccc2ccccc2c1)C1NS(=O)(=O)c2ccc(Cl)cc2S1 (configuration not stated)", "9 µM"]
]}

Below are 2 molecules. Give each one its IC50.
1. Cc1cc2c(cc1Cl)SC(C(=O)c1ccccc1)NS2(=O)=O (configuration not stated)
2. O=C(C1=NS(=O)(=O)c2ccc(Cl)cc2S1)c1ccc2ccccc2c1

Ans.
["15 µM", "9 µM"]

###

molecular target: Human immunodeficiency virus type 1 integrase (Human immunodeficiency virus 1, UniProt Q7ZJM1, Y99S); assay: Inhibition of HIV1 integrase Y99S mutant 3'-end processing activity
I'd be grateful if you could share measured pIC50 for these entries.
Numbers only, as −log10 of the molar value.

{"columns": ["MOLECULE", "TEST_VALUE"],
 "data": [
  ["O=C(c1ccc(Cl)c(Cl)c1)C1NS(=O)(=O)c2ccc(Cl)cc2S1 (configuration not stated)", 4.05]
]}

Below are 3 molecules. Give each one its pIC50.
1. Cc1cc2c(cc1Cl)SC(C(=O)c1ccc(Cl)cc1)=NS2(=O)=O
2. Cc1cc2c(cc1Cl)SC(C(=O)c1ccccc1)NS2(=O)=O (configuration not stated)
3. O=C(c1ccc2ccccc2c1)C1NS(=O)(=O)c2ccc(Cl)cc2S1 (configuration not stated)

Ans.
4.05
4.05
4.00

Below are 2 molecules. Give each one its pIC50.
1. O=C(C1=NS(=O)(=O)c2ccc(Cl)cc2S1)c1ccc2ccccc2c1
2. O=C(C1=NS(=O)(=O)c2ccc(Cl)cc2S1)c1ccc(Cl)cc1

Ans.
1: 4.00; 2: 4.00

Qu. Any idea what its pIC50 is? The molecule is O=C(C1=NS(=O)(=O)c2ccc(Cl)cc2S1)c1ccc(Cl)c(Cl)c1
Ans. 4.05

###

biological target: Human immunodeficiency virus type 1 integrase (Human immunodeficiency virus 1, UniProt Q7ZJM1); assay: Inhibition of HIV1 integrase strand transfer activity
PROPERTY: log10(IC50) (log10 of the value in µM)
Quick note: numbers are log10 of IC50, with µM as the unit.

Please review the following examples before continuing.
{"columns": ["MOLECULE", "log10(IC50)"],
 "data": [
  ["O=C(c1ccc(Cl)c(Cl)c1)C1NS(=O)(=O)c2ccc(Cl)cc2S1 (stereo not given)", 0.70],
  ["Cc1cc(Cl)cc2c1S(=O)(=O)N=C(C(=O)c1ccc(Cl)c(Cl)c1)S2", 1.40],
  ["Cc1cc2c(cc1Cl)SC(C(=O)c1ccc(Cl)cc1)NS2(=O)=O (stereo not given)", 0.60],
  ["Cc1cc(Cl)cc2c1S(=O)(=O)NC(C(=O)c1ccc(Cl)c(Cl)c1)S2 (stereo not given)", 1.15],
  ["Cc1cc2c(cc1Cl)SC(C(=O)c1ccc(Br)cc1)NS2(=O)=O (stereo not given)", 0.48],
  ["Cc1cc2c(cc1Cl)SC(C(=O)c1ccc3ccccc3c1)NS2(=O)=O (stereo not given)", 1.48],
  ["Cc1cc(Cl)cc2c1S(=O)(=O)NC(C(=O)c1ccc3ccccc3c1)S2 (stereo not given)", 0.78],
  ["Cc1cc2c(cc1Cl)SC(C(=O)c1ccc(Cl)c(Cl)c1)NS2(=O)=O (stereo not given)", 1.00]
]}

Below are 2 molecules. Give each one its log10(IC50).
1. O=C(c1ccc(Cl)cc1)C1NS(=O)(=O)c2ccc(Cl)cc2S1 (stereo not given)
2. COc1ccc(C(=O)C2=NS(=O)(=O)c3cc(C)c(Cl)cc3S2)cc1

Ans.
[0.60, 1.52]

These measurements were taken from ChEMBL document CHEMBL1154472.
